The reported measurements were obtained from patent US20220389003A1.

# TARGET_ENTITY: UniProt:Q86W56
# ASSAY_TEXT: Inhibition of PARG cellular assay (PAR foci in HeLa cells after MMS);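 further: IC50 from mean nuclear PAR foci intensity not percent-positive cells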
# Assay type: cell-based
# Design: endogenous in cells; host or cells: HeLa
# CONDITION_SET: compound 1 h then MMS 1 h
Listing of recorded IC50 by entry.

[[record]]
molecule = "N#CC1(NS(=O)(=O)c2cc(N3CCC4(CC3)COC4)c3c(Cl)nn(-c4nnc(C(F)F)s4)c3c2)CC1"
value_observed = "300 to 1000 nM"


*Q* Looking for the measured IC50 of CC(C)C(=O)N1CCN(c2cc(S(=O)(=O)NC3(C#N)CC3)cc3c2cnn3-c2nnc(C(F)F)s2)C[C@H]1C , can you help?
*A* ≤ 100 nM

*Q* Looking for the measured IC50 of COc1nccc(-c2cc(S(=O)(=O)NC3(C(N)=O)CC3)cc3c2cnn3-c2nnc(C(F)F)s2)n1 , can you help?
*A* 1000 to 10000 nM

*Q* Looking for the measured IC50 of CCCN(C)C(=O)N1CCN(c2cc(S(=O)(=O)NC3(C#N)CC3)cc3c2cnn3-c2nnc(C(F)F)s2)CC1 , can you help?
*A* ≤ 100 nM

*Q* Looking for the measured IC50 of N#CC1(NS(=O)(=O)c2cc(-c3cccnn3)c3cnn(-c4nnc(C(F)F)s4)c3c2)CC1 , can you help?
*A* 1000 to 10000 nM

*Q* Looking for the measured IC50 of CN1CC2CN(c3cc(S(=O)(=O)NC4(C#N)CC4)cc4c3cnn4-c3nnc(C(F)F)s3)CCN2C1=O (single isomer, unassigned) [Example 72] , can you help?
*A* 100 to 300 nM

*Q* Looking for the measured IC50 of CCC(C)C(=O)N1CCN(c2cc(S(=O)(=O)NC3(C#N)CC3)cc3c2cnn3-c2nnc(C(F)F)s2)CC1 (centres unmarked) , can you help?
*A* ≤ 100 nM

----------
# TARGET_ENTITY: PARG (Homo sapiens, UniProt Q86W56)
# Sequence (Q86W56 whole entry): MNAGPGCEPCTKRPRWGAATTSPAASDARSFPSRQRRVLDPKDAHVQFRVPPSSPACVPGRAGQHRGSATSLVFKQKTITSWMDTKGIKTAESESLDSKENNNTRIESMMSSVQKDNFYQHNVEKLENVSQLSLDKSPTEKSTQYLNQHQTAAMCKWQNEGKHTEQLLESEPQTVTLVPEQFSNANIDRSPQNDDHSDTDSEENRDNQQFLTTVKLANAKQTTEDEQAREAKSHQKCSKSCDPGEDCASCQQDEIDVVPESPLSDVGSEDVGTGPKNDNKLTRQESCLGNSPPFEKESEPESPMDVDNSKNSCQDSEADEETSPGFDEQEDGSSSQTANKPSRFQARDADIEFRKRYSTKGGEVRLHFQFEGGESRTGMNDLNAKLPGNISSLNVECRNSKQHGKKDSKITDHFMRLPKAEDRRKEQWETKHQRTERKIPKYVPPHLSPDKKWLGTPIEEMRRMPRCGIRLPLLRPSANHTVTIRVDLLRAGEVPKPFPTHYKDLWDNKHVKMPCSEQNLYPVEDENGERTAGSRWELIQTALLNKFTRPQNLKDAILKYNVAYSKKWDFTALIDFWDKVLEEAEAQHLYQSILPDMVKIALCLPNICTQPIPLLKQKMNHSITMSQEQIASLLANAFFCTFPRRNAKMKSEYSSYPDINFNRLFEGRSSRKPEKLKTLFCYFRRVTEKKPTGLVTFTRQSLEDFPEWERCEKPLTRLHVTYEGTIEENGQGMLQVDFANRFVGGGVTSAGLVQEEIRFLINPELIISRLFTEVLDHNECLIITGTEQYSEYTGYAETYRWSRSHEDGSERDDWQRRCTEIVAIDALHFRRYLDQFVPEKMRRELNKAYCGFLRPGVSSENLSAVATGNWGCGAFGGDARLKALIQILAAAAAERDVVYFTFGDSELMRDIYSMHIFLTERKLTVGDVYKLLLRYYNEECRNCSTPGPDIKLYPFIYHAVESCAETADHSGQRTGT
# ASSAY_TEXT: Inhibition of PARG enzymatic assay (TR-FRET enzymatic IC50 assay)
# Assay type: biochemical
# Set-up: purchased Peak Proteins
# CONDITION_SET: hPARG 250 pM, biotinylated-PARylated PARP substrate 30 nM
pIC50: −log10 of the molar value.
MEASURE: pIC50

Would you please look over these solved cases?
[[record]]
molecule = "C[C@H]1CN(c2cc(S(=O)(=O)NC3(C#N)CC3)cc3c2cnn3-c2nnc(C(F)F)s2)CCN1C(=O)N(C)C"
value_observed = "≥ 7.00"

[[record]]
molecule = "CN(CC(F)F)C(=O)N1CCN(c2cc(S(=O)(=O)NC3(C#N)CC3)cc3c2cnn3-c2nnc(C(F)F)s2)CC1"
value_observed = "≥ 7.00"

[[record]]
molecule = "N#CC1(NS(=O)(=O)c2cc(-c3ccc4cn[nH]c4c3)c3cnn(-c4nnc(C(F)F)s4)c3c2)CC1"
value_observed = "5.00 to 6.00"

[[record]]
molecule = "CCC(C)C(=O)N1CCN(c2cc(S(=O)(=O)NC3(C#N)CC3)cc3c2cnn3-c2nnc(C(F)F)s2)CC1 (stereo not shown)"
value_observed = "≥ 7.00"


*Q* Looking for the measured pIC50 of CN1CC[C@H](C(=O)N2CCN(c3cc(S(=O)(=O)NC4(C#N)CC4)cc4c3cnn4-c3nnc(C(F)F)s3)CC2)C1 , can you help?
*A* ≥ 7.00

*Q* Looking for the measured pIC50 of N#CC1(NS(=O)(=O)c2cc(N3CCN(C(=O)C4CCN(CC(F)F)CC4)CC3)c3cnn(-c4nnc(C(F)F)s4)c3c2)CC1 , can you help?
*A* ≥ 7.00

*Q* Looking for the measured pIC50 of N#CC1(NS(=O)(=O)c2cc(-c3ccnnc3)c3cnn(-c4nnc(C(F)F)s4)c3c2)CC1 , can you help?
*A* 6.52 to 7.00
